- method: COS7 lysate on small-molecule microarray, probe aHis, 635 nm (AID 1123);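 note: z-score combines 667nm fluorescence intensity with signal-to-noise per printed compound spot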
- particulars: COS7 cell lysate, fluorescence, higher = more signal
Each record gets a class by composite z-score: label 0: < 0.7; label 1: ≥ 0.7 and < 2; label 2: ≥ 2

compound	answer-label
COCCOC(=O)N1C(=O)[C@@]2(c3cc(C#CC4=CCCCC4)ccc31)[C@H](c1ccccc1OCCO)N1[C@H](c3ccccc3)[C@H](c3ccccc3)OC(=O)[C@H]1[C@@H]2C(=O)N1CCc2cc(OC)c(OC)cc2C1	label 0
COc1ccc([Si](C)(C)[C@@H]2[C@@H](CCn3cc([C@H](O)c4ccccc4)nn3)O[C@]3(C(=O)N(Cc4ccc(N5CCOC5=O)cc4)c4ccccc43)[C@H]2C)cc1	label 0
CN1C(=O)C2C=CC(C(O)Cc3ccccc3)N(N(c3ccccc3)c3ccccc3)C2C1=O (stereo not drawn)	label 1
COCCOC(=O)N1C(=O)[C@@]2(c3ccccc31)[C@H](c1ccc(OCCO)cc1)N1[C@H](c3ccccc3)[C@H](c3ccccc3)OC(=O)[C@H]1[C@@H]2C(=O)Nc1nc2ccccc2s1	label 2
Cc1ccc(S[C@]2(C(=O)NCc3ccccc3)CC(=O)N(C(C)C)[C@@H]2c2ccc(CO)cc2I)cc1	label 2
COc1cc2c(cc1O)C(C)N(Cc1cc3c(cc1Br)OCO3)CC2 (stereo not drawn)	label 0
COc1ccc([Si](C)(C)[C@H]2[C@H](CCn3cc([C@H](O)c4ccccc4)nn3)O[C@@]3(C(=O)N(Cc4ccc(N5CCOC5=O)cc4)c4ccccc43)[C@@H]2C)cc1	label 0
C[C@H]1C2=C3C(CC[C@H]4C(OCc5ccc(F)cc5C(F)(F)F)OC[C@](C)([C@@H]34)N(C(=O)OC(C)(C)C)C2)C(CO)C1CO (stereo partly drawn)	label 2
CCOC(=O)C[C@H]1[C@H](OC(=O)Cc2ccc3c(c2)OCO3)[C@@H](NC(=O)C2CCCCC2)c2cc(OCCCO)ccc2N1C(=O)c1ccc2ccccc2n1	label 1
CN(C)CCCN1C(=O)[C@@]2(c3ccc([N+](=O)[O-])cc3)CC(=O)N(CC34CC5CC(CC(C5)C3)C4)[C@@H]2c2ccc(CO)cc21	label 1
CCOC(=O)C[C@H]1[C@H](OC(=O)c2ccc(-c3ccccc3)cc2)[C@@H](NC(=O)c2ccc3ccccc3c2)c2cc(OCCCO)ccc2N1C(=O)c1ccc2ccccc2n1	label 1

Reference source for all entries: PubChem BioAssay
